Reference for the values: patent US11083725B2

System: NHBE cells
Test: Biolog metabolic array: substrate use by NHBE cells with or without CA09 infection
Assay type: cell-based, human
Settings: Virus: CA09-infected NHBE cells, MOI 1; Biolog PMM2; 4 hr
// label = satisfied if 590 nm absorbance normalized to zero hour (substrate use), 4 hr is not less than 1, otherwise not satisfied

* CC(O)C(=O)O [L-Lactic Acid (DL)] | satisfied
* OC[C@H]1O[C@H](O[C@H]2O[C@H](CO)[C@@H](O)[C@H](O)[C@H]2O)[C@H](O)[C@@H](O)[C@@H]1O [D-Trehalose] | satisfied
* CCCCCC(=O)O [Hexanoic Acid] | not satisfied
* O=C(O)C[C@H](O)C(=O)O [L-Malic Acid] | satisfied
* Nc1ncnc2c1ncn2[C@@H]1O[C@H](CO)[C@@H](O)[C@H]1O [Adenosine] | satisfied
* OC[C@H]1O[C@@H](O[C@H]2[C@H](O)[C@@H](O)[C@H](O)O[C@@H]2CO)[C@H](O)[C@@H](O)[C@@H]1O [D-Cellobiose] | satisfied
* O=C(O)CCCO [g-Hydroxy-Butyric Acid] | not satisfied
* O=C(O)C(O)C(O)C(=O)O (stereo not shown) [m-Tartaric Acid] | satisfied
* CCC(=O)C(=O)O [a-Keto-Butyric Acid] | not satisfied
* O=C(CO)[C@@H](O)[C@H](O)[C@H](O)CO [D-Fructose] | not satisfied
* O=C(CO)[C@@H](O[C@H]1O[C@H](CO)[C@@H](O)[C@H](O)[C@H]1O)[C@H](O)[C@H](O)CO [Turanose] | not satisfied
* O=c1[nH]cnc2c1ncn2[C@@H]1O[C@H](CO)[C@@H](O)[C@H]1O [Inosine] | satisfied
* OC[C@H]1O[C@@H](O[C@@H]2[C@@H](CO)OC(O)(CO)[C@H]2O)[C@H](O)[C@@H](O)[C@H]1O (mixture of isomers) [Lactulose] | satisfied
* O=C(O)CCC(=O)O [Succinic Acid] | satisfied
* O=C(O)C[C@@H](O)C(=O)O [D-Malic Acid] | satisfied
* OC[C@@H](O)[C@@H](O)[C@@H](O)CO [Adonitol] | not satisfied
* OC[C@@H](O)[C@@H](O)CO [i-Erythritol] | not satisfied
* OC[C@@H]1OC(O)[C@@H](O)[C@H](O)[C@H]1O (stereo partly drawn) [L-Glucose] | not satisfied
